Recorded values, source patent US6924278B2.

Target: h-NK1 receptors (Homo sapiens, UniProt P25103)
Construct: expressed in transfected cells; host or cells: CHO cells (permanent expression), crude cell membranes
Sequence (P25103 whole entry): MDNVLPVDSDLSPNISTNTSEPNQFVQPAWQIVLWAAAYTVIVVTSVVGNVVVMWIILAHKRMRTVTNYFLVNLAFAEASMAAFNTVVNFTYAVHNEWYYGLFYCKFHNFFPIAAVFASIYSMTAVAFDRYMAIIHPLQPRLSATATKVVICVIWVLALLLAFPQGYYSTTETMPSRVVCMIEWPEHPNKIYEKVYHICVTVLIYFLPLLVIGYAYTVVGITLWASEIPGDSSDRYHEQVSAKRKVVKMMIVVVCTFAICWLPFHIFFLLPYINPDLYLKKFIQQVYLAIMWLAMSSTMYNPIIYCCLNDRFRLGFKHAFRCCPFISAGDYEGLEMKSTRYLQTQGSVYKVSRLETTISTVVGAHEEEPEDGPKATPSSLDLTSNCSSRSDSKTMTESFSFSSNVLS
Test: Evaluation of NK1 antagonist transport efficiency to the central nervous system using a h-NK1 receptor binding assay (brain extract after i.v. dosing of rats)
Conditions: 5 min; compound extracted from brain of male SD rats 5 min after i.v. injection at the dose of 1 mg/kg; CHO cell membranes expressing h-NK1; read-out: inhibition rate of 125I-BH-Substance P binding to h-NK1 receptors
Where a name gives a salt, the structure may show the parent alone.
observationType: inhibition at 1 mg/kg

Recorded result, Cc1ccc(C[C@@H]2CN(C/C=C/[C@@H]3COCCN3)CCN2C(=O)c2cc(C(F)(F)F)cc(C(F)(F)F)c2)cc1C.Cl.Cl [Example 45, dihydrochloride] , inhibition at 1 mg/kg: > 80%

Entry COC[C@H]1COCCN1CCCCN1CCN(C(=O)c2cc(C(F)(F)F)cc(C(F)(F)F)c2)[C@H](Cc2ccc(C)c(C)c2)C1 [Example 82, dihydrochloride] , inhibition at 1 mg/kg reported as > 80%

The recorded inhibition at 1 mg/kg for CC1(C)COCCN1CC#CCN1CCN(C(=O)c2cc([N+](=O)[O-])cc(C(F)(F)F)c2)[C@H](Cc2c[nH]c3ccccc23)C1.Cl.Cl [90-(3), dihydrochloride] is > 80%
